Reference source for all entries: patent US20230357447A1

- TARGET UNDER TEST: T1, Anti-CD28 scFv (VH-linker 1-VL) (biotinylated (site not stated))
- T1 construct: biotinylated and captured on neutravidin coated plates in the phage ELISA
- T1 sequence (scFv, as listed by the source): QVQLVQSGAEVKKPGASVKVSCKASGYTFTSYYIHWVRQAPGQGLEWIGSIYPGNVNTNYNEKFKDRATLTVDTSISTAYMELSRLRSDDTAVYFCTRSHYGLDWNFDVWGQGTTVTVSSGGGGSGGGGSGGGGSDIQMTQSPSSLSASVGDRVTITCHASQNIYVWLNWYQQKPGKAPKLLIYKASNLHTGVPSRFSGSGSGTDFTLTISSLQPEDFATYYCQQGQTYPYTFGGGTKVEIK
- PROTOCOL DETAILS: phage binding ELISA on captured biotinylated anti-CD28 scFv;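 further: crude clonal phage supernatants applied to the wells, bound phage read out with an HRP-conjugated anti-M13 antibody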
Hi! Could you tag entries with CD28 scFv signal below 1 as fulfilled, and those at or above as not fulfilled? Much appreciated.

- BINDER: "MFWCPSTMWNRCFD [Phage-420]"
  QUALITATIVE LABEL: "fulfilled"
- BINDER: "MDWCPRSLWAQCFY [Phage-364]"
  QUALITATIVE LABEL: "not fulfilled"
- BINDER: "MAWCPRILWHQCFN [Phage-381]"
  QUALITATIVE LABEL: "fulfilled"
- BINDER: "MDWCPRHLWTYCFH [Phage-376]"
  QUALITATIVE LABEL: "fulfilled"
- BINDER: "MHWCPRHLWSECFN [Phage-361]"
  QUALITATIVE LABEL: "not fulfilled"
- BINDER: "MDWCPTDLWHECFA [Phage-333]"
  QUALITATIVE LABEL: "not fulfilled"
- BINDER: "MDWCPMSMWAFCFD [Phage-405]"
  QUALITATIVE LABEL: "not fulfilled"
- BINDER: "MDWCPSFLWYECFN [Phage-367]"
  QUALITATIVE LABEL: "not fulfilled"
- BINDER: "MDWCPRHLWYECFS [Phage-324]"
  QUALITATIVE LABEL: "not fulfilled"
- BINDER: "MDWCPRYLWLECFN [Phage-354]"
  QUALITATIVE LABEL: "not fulfilled"
- BINDER: "MDWCPLFLWDQCFN [Phage-347]"
  QUALITATIVE LABEL: "not fulfilled"
- BINDER: "MDWCPSDMWSNCFN [Phage-413]"
  QUALITATIVE LABEL: "not fulfilled"
- BINDER: "MDWCPTYLWNVCFA [Phage-323]"
  QUALITATIVE LABEL: "not fulfilled"
- BINDER: "MDWCPSYLWPVCFN [Phage-365]"
  QUALITATIVE LABEL: "not fulfilled"
- BINDER: "MDWCPRPLWHECFA [Phage-359]"
  QUALITATIVE LABEL: "not fulfilled"
- BINDER: "MSWCPIDLWSECFA [Phage-340]"
  QUALITATIVE LABEL: "not fulfilled"
